- study.target: KRAS WT (Homo sapiens)
- Sequence (P01116 1-188 isoform P01116-2): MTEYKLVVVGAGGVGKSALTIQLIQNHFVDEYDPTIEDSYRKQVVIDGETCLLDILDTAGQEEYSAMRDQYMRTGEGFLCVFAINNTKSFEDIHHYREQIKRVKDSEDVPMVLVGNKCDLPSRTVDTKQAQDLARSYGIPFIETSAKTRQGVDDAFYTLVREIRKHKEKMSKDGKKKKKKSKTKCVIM
- procedure.details: HTRF KRAS-SOS1 interaction assay, wildtype KRAS
- condition.details: binned ≤2 μM / >2 μM, read-out: Inhibition of KRAS WT (IC50)
outcome.measure: IC50

INSERT INTO assay_data (molecule, endpoint_result) VALUES
  ('N#Cc1c(N)sc2c(F)ccc(-c3c(Cl)c4c5c(nc(OC[C@@]67CCCN6C[C@H](F)C7)nc5c3F)N(C(CC(F)F)c3cccnc3N)CCO4)c12 (mixture of isomers)', '≤ 2 µM'),
  ('N#Cc1c(N)sc2c(F)ccc(-c3c(C(F)(F)F)c4c5c(nc(OC[C@@]67CCCN6C[C@H](F)C7)nc5c3F)N([C@H](CC3CCC3)c3cccnc3N)CCO4)c12 (single isomer, unassigned) [Compound 893]', '≤ 2 µM'),
  ('CP(C)(=O)CC[C@H](c1cccnc1N)N1CCOc2c(C(F)(F)F)c(-c3ccc(F)c4sc(N)c(C#N)c34)c(F)c3nc(OC[C@@]45CCCN4C[C@H](F)C5)nc1c23 (single isomer, unassigned)', '≤ 2 µM'),
  ('C[C@@H]1CN(CC2(COc3nc4c5c(c(C(F)(F)F)c(-c6ccc(F)c7sc(N)c(C#N)c67)c(F)c5n3)OCCN4[C@H](C)c3cccnc3N)CC2)CCO1 (single isomer, unassigned) [Compound 812]', '≤ 2 µM'),
  ('CO[C@H]1CCN(C)[C@@H]1COc1nc2c3c(c(C(F)(F)F)c(-c4ccc(F)c5sc(N)c(C#N)c45)c(F)c3n1)OCCN2[C@H](C)c1cc(F)cnc1N (single isomer, unassigned)', '≤ 2 µM'),
  ('C=C1CN2CCC[C@@]2(COc2nc3c4c(c(C(F)(F)F)c(-c5ccc(F)c6sc(N)c(C#N)c56)c(F)c4n2)OCCN3[C@H](C)c2cc(F)cnc2N)C1', '≤ 2 µM'),
  ('CCO/N=C(\C)CCC[C@H](c1cccnc1N)N1CCOc2c(C(F)(F)F)c(-c3ccc(F)c4sc(N)c(C#N)c34)c(F)c3nc(OC[C@@]45CCCN4C[C@H](F)C5)nc1c23 (single isomer, unassigned) [Compound 859]', '> 2 µM'),
  ('C[C@@H]1COCCN1CC1(COc2nc3c4c(c(C(F)(F)F)c(-c5ccc(F)c6sc(N)c(C#N)c56)c(F)c4n2)OCCN3[C@H](C)c2cccnc2N)CC1 (single isomer, unassigned) [Compound 807]', '> 2 µM'),
  ('C[C@H](c1cccnc1N)N1CCOc2c(C(F)(F)F)c(-c3ccc(F)c4sc(N)c(C#N)c34)c(F)c3nc(OCC4(CN5[C@H](C)COC[C@@H]5C)CC4)nc1c23 (single isomer, unassigned) [Compound 763]', '≤ 2 µM'),
  ('CC(c1cccnc1N)N1c2nc(OC[C@@]34CCCN3C[C@H](F)C4)nc3c(F)c(-c4ccc(F)c5sc(N)c(C#N)c45)c(Cl)c(c23)OC[C@@H]1C(F)F (mixture of isomers)', '≤ 2 µM'),
  ('C[C@H](c1cccnc1N)N1CCOc2c(C(F)(F)F)c(-c3ccc(F)c4sc(N)c(C#N)c34)c(F)c3nc(OC[C@@]45CCCN4CC(C#N)C5)nc1c23 (stereo partly shown) [Compound 852]', '≤ 2 µM'),
  ('CC(=O)c1c(F)ccc2cc(O)cc(-c3nc4c5c(nc(OC[C@@H]6CCCN6C)nc5c3F)N(C(C)c3cccnc3N)CCO4)c12 (single isomer, unassigned) [Compound 750]', '≤ 2 µM'),
  ('CS(=O)(=O)CCC[C@H](c1cccnc1N)N1CCOc2c(C(F)(F)F)c(-c3ccc(F)c4sc(N)c(C#N)c34)c(F)c3nc(OC[C@@]45CCCN4C[C@H](F)C5)nc1c23 (single isomer, unassigned)', '≤ 2 µM'),
  ('N#Cc1c(N)sc2c(F)ccc(-c3c(Cl)c4c5c(nc(OC[C@@]67CCCN6C[C@H](F)C7)nc5c3F)N([C@H](/C=C/C(F)F)c3cccnc3N)CCO4)c12', '≤ 2 µM'),
  ('Cc1c(F)c(N)cc(-c2nc3c4c(nc(OC[C@@H]5CCCN5C)nc4c2F)N([C@H](C)c2cccnc2N)CCO3)c1C(F)(F)F (single isomer, unassigned)', '≤ 2 µM'),
  ('C[C@H](c1cc(F)cnc1N)N1CCOc2c(C(F)(F)F)c(-c3ccc(F)c4sc(N)c(C#N)c34)c(F)c3nc(OC[C@@]45CCCN4C[C@H](F)C5)nc1c23 (single isomer, unassigned) [Compound 682]', '> 2 µM'),
  ('N#Cc1c(N)sc2c(F)ccc(-c3c(Cl)c4c5c(nc(OC[C@@]67CCCN6C[C@H](F)C7)nc5c3F)N(Cc3cccnc3N)C3COCC3CO4)c12 (mixture of isomers)', '≤ 2 µM'),
  ('N#Cc1c(N)sc2c(F)ccc(-c3c(Cl)c4c5c(nc(OC[C@@]67CCCN6C[C@H](F)C7)nc5c3F)N([C@H](/C=C/C3CC3)c3cccnc3N)CCO4)c12', '≤ 2 µM'),
  ('N#Cc1c(N)sc2c(F)ccc(-c3c(C(F)(F)F)c4c5c(nc(OC[C@@]67CCCN6C[C@H](F)C7)nc5c3F)N([C@H](CC3CCOC3)c3cccnc3N)CCO4)c12 (single isomer, unassigned) [Compound 692]', '≤ 2 µM');
